TEST_DETAILS: yeast display, Sf9 membrane polyspecificity reagent, FACS + sequencing; frameworks hold sequencing errors
PROPERTY_MEASURED: polyreactivity (PSR sort gate)

>>> value_reported("QVQLVESGGGLDQAGGSLRLSCAASGSTFPSNAMGWYRQAPGNESEFVAAITFRGGRTYYADSVKGRFTISRDNAKNTVYLQMNSLKREDTAVYYCAAERWWYTVRGYGYWGQGTQVTVSS")
"high polyreactivity"
>>> value_reported("QVQLVESGGGLVQAGGSLRLSCAASGFIFSSNAMGWYRPAPGKERELVARITSSDGSTYYADSVKGRFTISRDNAKNTVYLQMNSLKPEDTAVYYCAKGRDATHYEYYLYSMDYWGQGTQVTVSS")
"low polyreactivity"
>>> value_reported("QVQLVESGGGLVQAGGSLRLSCAASGFIFTQYAMGWYRQSPGKERELVAGITSSGNTYYADSVKGRFTISRDNAKNTVYLQMNSLKPEDTAVYYCAARSYVRRFDGGYWGQGTQVTVSS")
"high polyreactivity"
>>> value_reported("QVQLVETGGGLVQAGGSLRLSFGASGSTFSQYGMGLYRQAPGKVRELVAAIRRSGGRTYYADSVKGRFTISLDNAKNTVYLQMNSLKPEDTAVYYCAADEYRYYFYRPGIGYDYWGQGTQVTVSS")
"low polyreactivity"

Proceed to the following item.
Please give the documented polyreactivity (PSR sort gate) of QVQLVESGVGLVQAGGSLRLSCAASGLIFFFYAMGWYRQAPGKERELVASISGGGITYYADSVKGRFTISRDNAKNTVYLQMNSLKPEDTAVIKNDYWGQGTQVTVSS
low polyreactivity

---

TEST_DETAILS: yeast display, Sf9 membrane polyspecificity reagent, FACS + sequencing; frameworks hold sequencing errors
PROPERTY_MEASURED: polyreactivity (PSR sort gate)

Answered examples (8):
>>> value_reported("QVQLVESGGGLVQAGGSLRLSCAASGFISFGNAMGWYIQAPGKERELVAGISRSGGSTYYADSVKGRFTISRDNAKNTVYLQMYSLKPEDTAVYYCATRVAIYPYRFDYWGQGTQVTVSS")
"high polyreactivity"
>>> value_reported("QVQLVESGGGLVQAGGSLRLSCAASGFIFTYYAMGWYRPAPGKERELVATISSGGGSTYYADSVKGRFTISRDNAKNTVYLQMNSLKPEDTAVYYCAASRRITGIRYLNRYEYWGQGTQVTVSS")
"high polyreactivity"
>>> value_reported("QVQLVESGGGLVQAGGSLRLSCAASGIIFYDNAMGWYRQAPGKERALVAALTWTGSSTYYADSVKGRFTISRDNAKNTVYLQMNSLKPEDTAVSYCNARASYGHQGRLGYARLYYWGQGTQVTVSS")
"high polyreactivity"
>>> value_reported("QVQLVESGGGLVQAGGSLRLSCAASGRTFRENAMGWYRQAPGKERELVAAAISSGDGTNYADSVKGRFTISRDNAKNTVYLQMNSLKPEDTAVYYCAADGPRDSYDYWGQGTQVTVSS")
"low polyreactivity"
>>> value_reported("QVQLVESGVGLVQAGGSLRLSCAASGGIFGKYVMGWSRQAPGKERELVAAITLRGGSTYYADSVKGRFTISRDNAKNTVYLQMNSLKPEDTAVYYCPRRAYQNWYNYWGQGTQVTVSS")
"high polyreactivity"
>>> value_reported("QVQLVESGGGLVQAGGSLRLSCGAYGRIFLFYDMGWYRQEPGKVRELVATISFRGGSTYYADSVKGRFTISRDNAKNTVYLQMNRLKPEDTAVYYCAKQNKRGYSTSAYYSWGQGTQVTVSS")
"low polyreactivity"
>>> value_reported("QVQLLESGGGLVQAGGSLRISCASSVRISPRYAMGWYRQAPGKERELVAAIDTSDGTTYYADSVKGRFTISRDNAMKTVYFQMNSLKPEDTAVYYCAAEGQLFDLYDYWGHGTQVTVSS")
"low polyreactivity"
>>> value_reported("QVQLVESGGGLVQAGGSLRLSCAASGSTFPLNAMGWYRQAPGKERELVASINFGGGTTYYADSVKGRFTISRDNAKNTVYLQMNSLKPEDTAVYYCAADVYRGTYRRDYWGQGTQVTVSS")
"high polyreactivity"

For each of the sequences below, note its polyreactivity (PSR sort gate).
1. QVQLVESGGGLVQAGGSLRLSCAASGSIFKTYAMGWYRQAPGKERELVAAISWRGGSTYYADSVKGRFTISRDNAKNTVYLEMNSLKPEDTAVYYCAAGRKFGTRTLWYRYGYWGQGTQVTVSS
2. QVQLVESGGGLVQAGGSLRLSCAASGFIFRHNAMVWYRQAPGKERELVAAITKRGGDTYYADSVKGRFTISRDNAKNTVYLQMISLKPEDTAVYYCNVDVRYPKYYYWGQGTQVTVSS
3. QVQLVESGGGLVQAGGSLRLICAASGGTFYINTMGWYRQAPGKERELVATITIVVSTKYADSVKGRFTISRDNAKNTVYLQMNSLKPEDTAVYYCAKDDVYRDSYLVFDGEMDYWGQGTQVTVSS

1: high polyreactivity; 2: low polyreactivity; 3: low polyreactivity

---

TEST_DETAILS: yeast display, Sf9 membrane polyspecificity reagent, FACS + sequencing; frameworks hold sequencing errors
PROPERTY_MEASURED: polyreactivity (PSR sort gate)

Some solved cases for reference:
>>> value_reported("QVQLEESVGGLVQAGGSLRLSCAASGSIFSPNAMGSYRQAPGKERELVAAISSNGDSTYYADSVKGRFTISRDNAMNTVYLQMNSLKPEDTAVYYCAAVSIGPGEYDYWGQGTQVTVSS")
"low polyreactivity"
>>> value_reported("QVQLVESGGGLVQAGGSLRLSCAASGSTFSVYAMGWYRQAPGKERELVAAISSGGTTNYADSVKGRFTISRDNAKNTVYLQMNSLKPEDTAVYYCAAEYDHYPYDYYWGQGTQVTVSS")
"low polyreactivity"
>>> value_reported("QVQLEESGGGLVQAGGSLRLSCAASGRTFRINDMGWYRQAPGKERELVATINSTGSTNYADSVKGRFTISRDNAKNTVYLQMNSLKPEDTAVYYCNAYLYYYRYHYNYWGQGTQVTVSS")
"low polyreactivity"
>>> value_reported("QVQLVESGGGLVQAGASLRLSCAASGNILVGNDMGWYRQAPWKERELVAAISSGDTTSYADSVKGRFTISRDNAKNTVYLQMNSLKPEDTAVYYCAVDRSLSPFAYDYWGQGTQVTVSS")
"low polyreactivity"
>>> value_reported("QVQLQESGGGPVQAGGSMRLSCAASGSISELRPMGWYREAPGKERELVAGISTGGSTNYADSVKGRFTISRDNAKKTVFLQMNSLKPEDTAVYYCAAASYGEGSYDYWGQGTQVTVRS")
"high polyreactivity"

Quick batch: polyreactivity (PSR sort gate) for everything below.
1. QVKLVESGGGLVQAGGSLRLSCAASGIIFYPNALGWYRQAPGKERELVAAITSDGSTYYADSVKGRFTISRDNAKNTVYLQMNSLKPEDTAVYYCGAWDDYGYDYWGQGTQVTVSS
2. QVQLLESGGGLVQAGGSLRLSCAASGITFEHYAMGWYRPAPGKERELVAAITWSGDSTNYADSVKGRFTISRDNAKNTVYLQMNSLNPEDTAVYYCAAYAYAGLYSGTWGYDYWGQGTQVTVSS
3. QVQLVESGGGLVQAGGSLRLSCAASGSIFDYYAMGWYRQAPGKERELVAAISWSGGSTYYADSVKGRFTISRDNAKNTVYLQMNSLKPEDTAVYYCAALSLAYHEYDYWGLGTQVTVSS
4. QVQLVESGGGLVQAGGSLRLSCAASGYTFAFYAMGWYRQAPGKERELVAAISAGGGRTYYADSVKGRFTISRDNAKNTVYLQMNSLKPEDTAVYYCATDLIQGAAPFRYDYWGQGTQVTVSS
5. QVQLEESGGGLVQAGGSLRLSCAASGSTFLLNAMGWYRQAPGKERELVAAITSSGGTNYADSVKGRFTISRDNAKNTVYLQMNSLKPEDTAVYNCYTRYSPGYQGTEVDYWGQGTQVTVSS
6. QVQLVESGGGLVQAGGSLRLSCAASGNIFLYYAMGWYRQAPGNERELVADIDSSGASTYYADSVKGRFTISRDNAKNTVYFQMNSLKPEDTAVYYCASEFHWWYAGYDYGYWGQGTQVTVSS
7. QVHLVESVGGLLQAGGSLPLSCPASGSTFYDYAMGWYRPAPGKERELVASITTGGDSTYYADSVKGRFTISRDNAKNSVYLQMKSLIPEDSAVYYFNADWYYWFSNYQGAPEMDYWGQGTQVSVSS
8. QVQLVESGGGLVQAGGSLRLSCAASGFIFGIYAMGWYRQAPGKEREFVAAITGSAGSTYYADSVKGRFTISRDNAKNTVYLQMNSLKPEDTAVYYCAAVLRTHRYGGYNYWGQGSQVTVSS

low polyreactivity
low polyreactivity
high polyreactivity
low polyreactivity
low polyreactivity
low polyreactivity
high polyreactivity
low polyreactivity

---

TEST_DETAILS: yeast display, Sf9 membrane polyspecificity reagent, FACS + sequencing; frameworks hold sequencing errors
PROPERTY_MEASURED: polyreactivity (PSR sort gate)

>>> value_reported("QVQLVESGGGLVQAGGSLRLSCAASGSTFYTYDMGWYRQAPGKERELVASITSGGSTNYADSVKGRFTISRDNAKNTVYLQMNSLKPEDTAVYYCAVGTYTIYSGTLYDYKYYWGQGTQVTVSS")
"low polyreactivity"
>>> value_reported("QVQLVESGGGLVQAGGSLRLSCAASGNTFWGNAMGWYRQAPGKERELVATISASAGSTYYADSVKGRFTISRDNAKNTVYLQMNSLKPDDTAVYYCAKTALRYLKHGRTKGDYWGQGTQVTLSS")
"low polyreactivity"
